Provenance of the data: patent US20060106042A1

- assay.summary: logP determination by reversed-phase HPLC (EEC Directive 79/831 Annex V.A8)
- Type: physicochemical
- condition.label: reversed-phase HPLC column (C18); acidic range: 0.1% aqueous phosphoric acid/acetonitrile gradient, C18, 43° C.; read-out: logP a)
- Source text: (a) Mobile phases for the determination of the acidic range: 0.1% aqueous phosphoric acid, acetonitrile; linear gradient from 10% acetonitrile to 90% acteonitrile—the corresponding measurement results in Table 1 are marked^a). […]
Entries whose chromatographic logP is below 4 take Y; entries at or above 4 take N.

In [3]: df
Out[3]:
                                   compound  group_label
0    FC(F)=C(F)CCSc1nccc(-c2ccc3ccccc3n2)n1            N
1             FC(F)=CCCSc1nccc(-c2cnccn2)n1            Y
2          FC(F)=C(F)CCSc1nccc(-c2cnccn2)n1            Y
3           FC(F)=C(F)CCSc1nccc(-c2cccs2)n1            Y
4              FC(F)=CCCSc1nccc(-c2ccsc2)n1            Y
5     FC(F)=C(F)CCSc1nccc(-c2cc3ccccc3s2)n1            N
6        FC(F)=CCCSc1nccc(-c2cc(Cl)sc2Cl)n1            N
7  [O-][S+](CCC=C(F)F)c1nccc(-c2ccccn2)n1 (stereo not shown)            Y
8              FC(F)=CCCSc1nccc(-c2cccs2)n1            Y
9         FC(F)=CCCSc1nccc(-c2cccc(Br)n2)n1            N

---

Quick list: chromatographic logP per entry.
- assay.summary: logP determination by reversed-phase HPLC (EEC Directive 79/831 Annex V.A8)
- Assay type: physicochemical
- condition.label: reversed-phase HPLC column (C18), pH 2.3; read-out: logP (pH 2.3)
result.type: chromatographic logP

In [3]: df
Out[3]:
                substance_smiles  numeric_value
0         FC(F)=CCCSc1nccc(Cl)n1            3.3
1   FC(F)=CCCSc1nccc(-n2cccn2)n1            3.3
2  FC(F)=CCCSc1nccc(-c2ccccn2)n1           3.33

---

- assay.summary: logP determination by reversed-phase HPLC (EEC Directive 79/831 Annex V.A8)
- Type: physicochemical
- condition.label: reversed-phase HPLC column (C18); acidic range: 0.1% aqueous phosphoric acid/acetonitrile gradient, C18, 43° C.; read-out: logP a)
- Source text: (a) Mobile phases for the determination of the acidic range: 0.1% aqueous phosphoric acid, acetonitrile; linear gradient from 10% acetonitrile to 90% acteonitrile—the corresponding measurement results in Table 1 are marked^a). […]
result.type: chromatographic logP

In [3]: df
Out[3]:
                                    compound  result
 0  FC(F)=CCCSc1nccc(-c2cscn2)n1 [Example 48]    3.14
 1  FC(F)=CCCSc1nccc(-c2nc3ccc(Cl)cc3s2)n1 [Example 45]    5.57
 2  FC(F)=CCCSc1nccc(-c2ccncc2)n1 [Example 10]    1.72
 3  Cc1cc(=O)[nH]n1-c1ccnc(SCCC=C(F)F)n1 [Example 39]    2.55
 4  FC(F)=C(F)CCSc1nccc(-c2ccsc2)n1 [Example 60]    3.82
 5  FC(F)=CCCSc1nccc(-n2ccnn2)n1 [Example 25]    2.62
 6  FC(F)=CCCSc1nccc(-n2nccn2)n1 [Example 26]     2.7
 7  FC(F)=CCCSc1nccc(-n2cc(Cl)cn2)n1 [Example 24]    4.13
 8  FC(F)=CCCSc1nccc(-c2nccc3ccccc23)n1 [Example 7]    3.67
 9  FC(F)=C(F)CCSc1nccc(-n2cccn2)n1 [Example 22]    3.27
10  FC(F)=CCCSc1nccc(-c2ncccc2Cl)n1 [Example 43]    3.32
11  FC(F)=CCCSc1nccc(-c2ccc(Cl)s2)n1 [Example 3]    4.73
12  Cc1c(-c2ccnc(SCCC=C(F)F)n2)sc2ccccc12 [Example 54]    5.25
13  FC(F)=CCCSc1nccc(-c2nccs2)n1 [Example 11]    3.33
14  FC(F)=CCCSc1nccc(-c2ccc3ccccc3n2)n1 [Example 31]    4.81
15  FC(F)=CCCSc1nccc(-c2cc3ccccc3s2)n1 [Example 53]    4.87
16  FC(F)=CCCSc1nccc(-c2ccc(Br)s2)n1 [Example 51]    4.77
17  Cc1ccc(-c2ccnc(SCCC=C(F)F)n2)s1 [Example 52]     4.3
18  FC(F)=C(F)CCSc1nccc(-c2nccs2)n1 [Example 12]    1.56
19  COc1ccnc(-c2ccnc(SCCC=C(F)F)n2)c1 [Example 8]    2.41
20  COc1ccc(-c2ccnc(SCCC=C(F)F)n2)nc1 [Example 50]    2.12
21  FC(F)=C(F)CCSc1nccc(-c2cc(Cl)sc2Cl)n1 [Example 64]    5.55
